All values here come from the RNAGym collection of RNA variant scans (doi:10.7554/elife.80360).

In this section we review reported self-cleavage values for a set of variants.
B1: CPEB3 Ribozyme (parent)
chain: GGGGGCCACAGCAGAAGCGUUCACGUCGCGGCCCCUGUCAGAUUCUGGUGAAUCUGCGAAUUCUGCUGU

Variants of: B1
Assay: self-cleavage, relative activity (ratio to wild type); higher = more cleavage; co-transcriptional
measurement label: self-cleavage

{"columns": ["ordered residues", "measurement label", "observed result"],
 "data": [
  ["GGGGGCCACAGCCGAAGCGUUCACGUCGCGGCCCCUGUCAGGUUCUGGUGAAUCUGCGAAUUCUGCUGU [A13C A42G]", "self-cleavage", 0.506],
  ["GGGGGCCACAGCAGAAGCGUUCACGUCGCAGCCCCUGUCAGAUUCUGGUGAAUCUGCGAAUUCUGCUGU [G30A]", "self-cleavage", 0.913],
  ["GGGGGCCACAGCAGAAGCGUUCACGUCGCGGCCCCUGUCAGCUUGUGGUGAAUCUGCGAAUUCUGCUGU [A42C C45G]", "self-cleavage", 0.819],
  ["GGGGGCCACAGCAGAAGCGUUCACGUCGCGGCCCCUGUCCGAUUCCGGUGAAUCUGCGAAUUCUGCUGU [A40C U46C]", "self-cleavage", 0.273],
  ["GGGGUCCACAGCAGAAGCGUUCACGUCGCGGCCCCUGUCAGAUUCUUGUGAAUCUGCGAAUUCUGCUGU [G5U G47U]", "self-cleavage", 0.296],
  ["GGGGGCCACAGCAGAAGCGUUCACGUCGCGGCCCCUGUCAGAUUCUGGUGAAUCUGCGAAUACUACUGU [U62A G65A]", "self-cleavage", 0.546],
  ["GGGGGCGACAGCAGAAACGUUCACGUCGCGGCCCCUGUCAGAUUCUGGUGAAUCUGCGAAUUCUGCUGU [C7G G17A]", "self-cleavage", 0.11],
  ["GGGGGCCACAGCAAACGCGUUCACGUCGCGGCCCCUGUCAGAUUCUGGUGAAUCUGCGAAUUCUGCUGU [G14A A16C]", "self-cleavage", 0.136],
  ["GGGGGCCACAUCAGAAGCGUUCACGUCGCGGCCCCUGUCAGAUUCUGGUGAAUCUGCGAAUUCUGCUCU [G11U G68C]", "self-cleavage", 0.943],
  ["GGGGGCCACAGCAGAAGCGUUCAUGUCGCGGCCCCUGUCAGAUUAUGGUGAAUCUGCGAAUUCUGCUGU [C24U C45A]", "self-cleavage", 0.743],
  ["GGGGGCCACAGCAGAAGCGUUCACGUCGCGGCCCCUGUUAGAUUCUGGUGUAUCUGCGAAUUCUGCUGU [C39U A51U]", "self-cleavage", 0.836],
  ["GGGGGCCACAGCAGAAGCGUUCACGUCGUGGCCCCUGUCAGAUUCUGGUGAAUCUGCGGAUUCUGCUGU [C29U A59G]", "self-cleavage", 0.58],
  ["GGGGGCCACAGCAGAAGCGUUCACGUCGCGGCCCCUGUCAGAUCCUGGUGAGUCUGCGAAUUCUGCUGU [U44C A52G]", "self-cleavage", 1.01],
  ["GGGGGCCACAGCAGAAGCGAUCACGUCGCGGCCCCUGUCAGAUUCUGGUGAAUCUGCGAAUUCUGCUGC [U20A U69C]", "self-cleavage", 0.225],
  ["GGGGGCCACAGCAGAAGCGUUCACGUCGCGGCCUCUGUCAGAUUCUGGUGAAUCUGCGAAUUCUGCUAU [C34U G68A]", "self-cleavage", 1.01],
  ["GGGGGCCACAGCAGAAGCGUUCACCUCGCGGCCCCUGUCAGAUUCUGGUGAACCUGCGAAUUCUGCUGU [G25C U53C]", "self-cleavage", 0.0815],
  ["GGGGGCCACAGCAGAAGCGUUCACCUCGCGGGCCCUGUCAGAUUCUGGUGAAUCUGCGAAUUCUGCUGU [G25C C32G]", "self-cleavage", 0.173],
  ["GGGGGCCGCAGCAGCAGCGUUCACGUCGCGGCCCCUGUCAGAUUCUGGUGAAUCUGCGAAUUCUGCUGU [A8G A15C]", "self-cleavage", 0.0691],
  ["GGGGGCCACAGCAGAAUCGUUCACGUCGCGGCCCCUGUCAGAUUCUGGUGAAUCGGCGAAUUCUGCUGU [G17U U55G]", "self-cleavage", 0.238],
  ["GGCGGCCACAGCAGAAGCGUUCACGUCGCGGCCCCUGUCAGAGUCUGGUGAAUCUGCGAAUUCUGCUGU [G3C U43G]", "self-cleavage", 0.104],
  ["GGUAGCCACAGCAGAAGCGUUCACGUCGCGGCCCCUGUCAGAUUCUGGUGAAUCUGCGAAUUCUGCUGU [G3U G4A]", "self-cleavage", 0.0885],
  ["GGGGGCCACAGCAGAAGCGUUCACGUCGCGGCCCCUGGCAGAUUCUGGUGAAUCUGCGAAUUCCGCUGU [U38G U64C]", "self-cleavage", 0.235]
]}
